Where do the numbers come from? From ChEMBL document CHEMBL1129753.

Target: fMet-Leu-Phe receptor (Homo sapiens)
Assay: Binding affinity towards fMLF receptor using human neutrophils
Could you please mark label 1 for values of IC50 below 200 nM and label 0 for values at or above it?

Previously resolved entries follow.
CCCCNC(=O)N[C@@H](CCSC)C(=O)N[C@@H](CC(C)C)C(=O)N[C@@H](Cc1ccccc1)C(=O)O ... label 0
CCCNC(=O)N[C@@H](CCSC)C(=O)N[C@@H](CC(C)C)C(=O)N[C@@H](Cc1ccccc1)C(=O)O ... label 0
CSCC[C@H](NC(=O)NC(C)(C)C)C(=O)N[C@@H](CC(C)C)C(=O)N[C@@H](Cc1ccccc1)C(=O)O ... label 0

Next, consider the following compound.
Query: Field: below-cutoff. Rule: recorded IC50 strictly less than 200 nM. Subject: COc1ccc(NC(=O)N[C@@H](CCSC)C(=O)N[C@@H](CC(C)C)C(=O)NC(Cc2ccccc2)C(=O)O)cc1 (stereo not given in full)
Response: label 1

* * *

Target: fMet-Leu-Phe receptor (Homo sapiens)
Test: Binding affinity towards fMLF receptor using human neutrophils
attribute-measured: pIC50
Give bare numbers, as −log10 of the molar value.

Some entries whose results are on file:
CC(C)C[C@@H](NC(=O)[C@H](Cc1ccccc1)NC(=O)[C@@H](CC(C)C)NC(=O)[C@H](Cc1ccccc1)NC(=O)NC12CC3CC(CC(C3)C1)C2)C(=O)N[C@@H](Cc1ccccc1)C(=O)O ... 7.70
CC(C)C[C@@H](NC(=O)[C@H](Cc1ccccc1)NC(=O)[C@@H](CC(C)C)NC(=O)[C@H](Cc1ccccc1)NC(=O)NC(C)C)C(=O)N[C@@H](Cc1ccccc1)C(=O)O ... 6.70

Next, consider the following molecule.
Query: Recorded pIC50 of C=C(C)NC(=O)N[C@@H](CCSC)C(=O)N[C@@H](CC(C)C)C(=O)N[C@@H](Cc1ccccc1)C(=O)O , please.
Response: 6.52

* * *

Molecular target: fMet-Leu-Phe receptor (Homo sapiens)
Sequence (P21462 whole entry): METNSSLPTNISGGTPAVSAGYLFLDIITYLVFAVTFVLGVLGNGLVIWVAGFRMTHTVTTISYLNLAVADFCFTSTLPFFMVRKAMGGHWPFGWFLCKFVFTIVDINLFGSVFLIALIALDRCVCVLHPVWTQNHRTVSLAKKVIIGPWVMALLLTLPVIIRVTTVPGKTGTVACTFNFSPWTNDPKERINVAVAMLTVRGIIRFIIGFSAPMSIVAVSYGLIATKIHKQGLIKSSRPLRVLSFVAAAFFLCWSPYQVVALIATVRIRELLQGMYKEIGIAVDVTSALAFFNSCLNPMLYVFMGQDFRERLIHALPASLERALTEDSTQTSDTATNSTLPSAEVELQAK
Assay: Agonistic activity was determined by measuring the ability to induce superoxide production(as measured by reduction of cytochrome C) using human neutrophils
Type: functional
attribute-measured: pEC50
Answers are plain numbers, as −log10 of the molar value.

Some entries whose results are on file:
COc1ccc(NC(=O)N[C@@H](CCSC)C(=O)N[C@@H](CC(C)C)C(=O)NC(Cc2ccccc2)C(=O)O)cc1 (some centres undefined) ... 9.00
CSCC[C@H](NC(=O)Nc1ccc(Cl)cc1)C(=O)N[C@@H](CC(C)C)C(=O)N[C@@H](Cc1ccccc1)C(=O)O ... 9.00
CSCC[C@H](NC(=O)Nc1cccc(C)c1)C(=O)N[C@@H](CC(C)C)C(=O)N[C@@H](Cc1ccccc1)C(=O)O ... 6.05

Next, consider the following compound.
Query: Recorded pEC50 of CSCC[C@H](NC(N)=O)C(=O)N[C@@H](CC(C)C)C(=O)N[C@@H](Cc1ccccc1)C(=O)O , please.
Response: 5.52
